Source: PubChem BioAssay (NCI)

Task for the reader: assign each of the following compounds its reported TGI.
- Test system: HCT-116 colon
- PROCEDURE DETAILS: NCI tumour cell line growth inhibition, 48 h

Given the compound "O=C(Cc1nc2sc3c(c2c(=O)[nH]1)CCCC3)Nc1ccccc1" , what is its reported TGI?
> 100 µM

Now give it for O=C1C2=Cc3ccccc3OC2(O)Oc2ccccc21 (stereo unspecified) too.
> 100 µM

Now give it for "O=c1c2ccccc2[nH]c2c(O)ccc(O)c12" too.
37.9 µM

Now give it for COc1cc2c(cc1OC)C1c3ccccc3CCN1CCC2 (stereo unspecified) too.
> 100 µM

Now give it for CC(C)(C)OC(=O)N1CC(CCl)c2ccc(O)cc21 (stereo unspecified) too.
12.1 µM

Now give it for "O=C(/C=C/c1ccc(OCc2ccccc2)cc1)NCc1ccc(C(=O)NCCc2c[nH]c3ccccc23)cc1" too.
> 100 µM

---

- System: SK-MEL-28 melanoma
- PROCEDURE DETAILS: NCI tumour cell line growth inhibition, 48 h; in the data active means GI50 below about 0.43 µM; inactive means the rest
Hi there, use one of these labels in your reply, thanks! active, inactive

Tell me the recorded outcome of this test for "C[C@]12CC[C@@H]3c4ccc(O)cc4CC[C@H]3[C@@H]1CC[C@@H]2NS(=O)(=O)c1ccc(Br)cc1" .
inactive

Now give it for "CCOC(=O)C(Cc1c[nH]c2cc(N(CCO)CCO)ccc12)(NC(C)=O)C(=O)OCC" too.
inactive

Now give it for "Cc1ccc(S(=O)(=O)OCC#CCOS(=O)(=O)c2ccc(C)cc2)cc1" too.
inactive

Now give it for "NCCCOc1cc2ccccc2cc1C(=O)Nc1ccc(Cl)cc1OC(=O)c1cc2ccccc2cc1OCCCN" too.
active

Now give it for "C/C=C/C/C=C/[C@H](C)C[C@H](O)[C@@H]1C[C@@H]2O[C@H]2/C=C/[C@@H]2OC(C)(C)O[C@H]2/C=C/C[C@H](C)CC(=O)O1" too.
inactive

Now give it for "Cc1ccc(C(=O)c2sc3nc4c(cc3c2N)CCCC4)c(C)c1" too.
inactive

Now give it for "CN1CCN(c2ccc(OC(F)(F)F)c(Nc3ncc4c(n3)-c3c(c(C(N)=O)nn3CCO)CC4)c2)CC1" too.
inactive

Now give it for "Nc1ccccc1C#C/C=C\C#CC#C/C=C\C#Cc1ccccc1N" too.
inactive

Now give it for COc1ccc(C(C)c2cc(OC)c(OC)c(OC)c2)cc1 (centres undefined) too.
inactive

---

- Test system: DMS 273 small cell lung
- PROCEDURE DETAILS: NCI tumour cell line growth inhibition, 48 h
Task for the reader: assign each of the following compounds its reported TGI.

Given the compound C1OC1CN1CCN(CC2CO2)CC1 (stereo unspecified) , what is its reported TGI?
> 100 µM

Now give it for "N#Cc1c(-c2ccccc2)cc(-c2ccc(N)cc2)[nH]c1=O" too.
> 100 µM

Now give it for "S=c1o[nH]c(-c2ccccc2)c1C=Nc1ccccc1" too.
> 100 µM

Now give it for "Cc1ccccc1NC(=O)/C=N/O" too.
> 100 µM

Now give it for "Cn1c(=O)nc2n(-c3ccc(Cl)cc3)c(-c3ccccc3)c(-c3ccccc3)nc-2c1=O" too.
59.3 µM

Now give it for "N#Cc1ccc(/C=C(/C(=O)c2ccccc2)c2ccccc2)cc1" too.
26.2 µM

Now give it for "COc1ccc2c3c([nH]c(=O)c2c1C(=O)O)-c1ccccc1CC3" too.
> 100 µM

Now give it for "Cc1cccc(C)c1NC(=O)CCC/C(CC(=O)c1ccc(F)cc1)=N\NC(=O)C(=O)NN" too.
> 100 µM

Now give it for "O=C1/C(=C/c2ccc3c(c2)OCCO3)CCC/C1=C\c1ccc2c(c1)OCCO2" too.
43.9 µM

Now give it for "O=c1c2cc(Br)cc(Br)c2nc(CCCl)n1-c1ccc(O)c([N+](=O)[O-])c1" too.
36.9 µM

Now give it for "COc1cc2c(oc(=O)c3c4occc4cc(OC)c23)c2cccc(OCc3ccccc3)c12" too.
> 100 µM

---

- Test system: HCC-2998 colon
- PROCEDURE DETAILS: NCI tumour cell line growth inhibition, 48 h
Task for the reader: assign each of the following molecules its reported GI50.

What is its GI50 for HCC-2998 colon? Entry: "O=[N+]([O-])c1cccc(-c2nc(-c3ccc(Cl)cc3Cl)cn2-c2ccccc2)c1"
2.99 µM

Now give it for "COc1cccc(/C=C/c2nc3c(cnn3-c3ccccc3)c(=O)[nH]2)c1" too.
> 100 µM

Now give it for "COc1cccc(-c2nn(-c3ccccc3)cc2-c2ccnc(NCCCNC(=O)c3cccc(C(F)(F)F)c3)c2)c1" too.
3.96 µM

Now give it for "COc1ccc(/C(C)=N/NC(=O)CSc2nc3ccccc3c(=O)n2CCc2ccc(S(N)(=O)=O)cc2)cc1" too.
9.26 µM

Now give it for "NCCCOc1cc2ccccc2cc1C(=O)Nc1ccc(Cl)cc1OC(=O)c1cc2ccccc2cc1OCCCN" too.
1.43 µM

---

- Tested on: MOLT-4 leukemia
- PROCEDURE DETAILS: NCI tumour cell line growth inhibition, 48 h; in the data active = GI50 below about 0.43 µM; inactive = the rest
Hi there, use one of these labels in your reply, thanks! YES = active, NO = inactive

Tell me the recorded outcome of this test for "CC1=C(/C=C/C(=O)CC(=O)/C=C/C2=C(C)CCCC2(C)C)C(C)(C)CCC1" .
NO

Now give it for CCC1C(C)C=NN1c1nc(N)nc(C(C#N)=Nc2ccc(N(C)C)cc2)n1 (stereo not given) too.
NO

Now give it for Nc1ncnc2c1ncn2C1OC(COS(N)(=O)=O)C(O)C1O (stereo not given) too.
YES

Now give it for "CC(=O)Oc1ccc2c(c1)[C@@]1(C)CCCC(C)(C)[C@@H]1CC2" too.
NO

Now give it for "COc1cccc(/C=C/c2nc3c(cnn3-c3ccccc3)c(=O)[nH]2)c1" too.
NO

---

Task for the reader: assign each of the following compounds its reported TGI.
- Tested on: MOLT-4 leukemia
- PROCEDURE DETAILS: NCI tumour cell line growth inhibition, 48 h

Given the compound "COc1ccc(C(=O)NC2=C(Cl)C(=O)c3ccccc3C2=O)cc1" , what is its reported TGI?
> 22 µM

Now give it for "Cc1cc(S(=O)(=O)Nc2nnc3c4ccccc4cnn23)c(S)cc1Cl" too.
> 100 µM

Now give it for "CC[C@H](C)C1=C(OC(C)=O)[N@+]2([O-])Oc3ccc(-c4c(O)c(O)c(-c5ccc(OC(C)=O)cc5)c(OC(C)=O)c4OC(C)=O)cc3O[C@]2([C@@H](C)CC)C(=O)N1O" too.
> 50 µM

Now give it for [N-]=[N+]=NC1(c2ccccc2)C(=O)C(Cl)=C(c2ccccc2)N(c2ccccc2)C1=O (stereo not drawn) too.
> 100 µM

Now give it for "CN(CCNC(=O)c1c[nH]c2c1ccc1ccccc12)CCNC(=O)c1c[nH]c2c1ccc1ccccc12" too.
4.3 µM

Now give it for "CN(C)CCNCc1ccc2c(-c3ccccc3)nc3cc(Cl)c(Cl)cc3n12" too.
21.6 µM

Now give it for O=C1c2c(O)cc(O)cc2C(C2OC(CO)C(O)C(O)C2O)c2cc(CO)cc(O)c21 (stereo not drawn) too.
> 100 µM

Now give it for "O=C1C[C@H](COCc2ccccc2)NC(=O)C[C@H](COCc2ccccc2)NC(=O)C[C@H](COCc2ccccc2)N1" too.
> 100 µM

---

- Test system: EKVX NSCLC
- PROCEDURE DETAILS: NCI tumour cell line growth inhibition, 48 h
Task for the reader: assign each of the following molecules its reported TGI.

Given the molecule "Clc1cc2ccccc2c2ccccc12" , what is its reported TGI?
> 100 µM

Now give it for "N#Cc1ccc(/C=C(/C(=O)c2ccccc2)c2ccccc2)cc1" too.
42.9 µM

Now give it for COc1cc2cc(C(=O)N3CC(CCl)c4ccc([N+](C)(C)Cc5ccc([N+](=O)[O-])cc5)cc43)[nH]c2c(OC)c1OC (stereo not given) too.
29.3 µM

Now give it for "CCC(=O)NI1OC(=O)c2ccccc21" too.
> 100 µM

Now give it for "O=[N+]([O-])c1ccc(-n2nc3ccc4c(no[n+]4[O-])c3[n+]2[O-])c([N+](=O)[O-])c1" too.
26.6 µM

---

- System: SK-OV-3 ovarian
- PROCEDURE DETAILS: NCI tumour cell line growth inhibition, 48 h; in the data active = GI50 below about 0.43 µM; inactive = the rest
Hi there, use one of these labels in your reply, thanks! 1 (yes) = active, 0 (no) = inactive

Tell me the recorded outcome of this test for "Cc1cc(C(=O)Nc2n[nH]c3ccccc23)n[nH]1" .
0 (no)

Now give it for "COc1cc(Cl)cc(-c2nn(-c3cccc(NC(=O)Nc4cccc(C(F)(F)F)c4)c3)cc2-c2ccncc2)c1" too.
0 (no)

Now give it for "O=C(O)c1cc2ccccc2c2c3c(ccc12)OCO3" too.
0 (no)

Now give it for "Cc1ccc(S(=O)(=O)OCC#CCOS(=O)(=O)c2ccc(C)cc2)cc1" too.
0 (no)

Now give it for N#CC1=C(N)NC(=S)NC1c1ccc(-c2ccc(-c3nc4ccccc4o3)cc2)s1 (stereo not drawn) too.
0 (no)

Now give it for "CC[C@@]1(OC(=O)CN(C)C)C(=O)OCc2c1cc1n(c2=O)Cc2cc3c(N)cccc3nc2-1" too.
1 (yes)

Now give it for "COc1cc(-n2cc(-c3ccccc3)[nH]c2=O)cc(OC)c1OC" too.
0 (no)

Now give it for CCC1C(C)C=NN1c1nc(N)nc(C(C#N)=Nc2ccc(N(C)C)cc2)n1 (stereo not drawn) too.
0 (no)
